// provenance: the supplement of paper PMC11246515

# procedure details: total protein half-life in vivo (active degradation + dilution); higher = more stable protein
# test context: wild type E. coli NCM3722; growth: C-lim chemostat; doubling time 12 h
Listing: total protein half-life in vivo of selected sequences
Respond numerically; units are h and should not be typed.

ordered residues	total protein half-life in vivo [h]
MNTPAQLSLPLYLPDDETFASFWPGDNSSLLAALQNVLRQEHSGYIYLWAREGAGRSHLLHAACAELSQRGDAVGYVPLDKRTWFVPEVLDGMEHLSLVCIDNIECIAGDELWEMAIFDLYNRILESGKTRLLITGDRPPRQLNLGLPDLASRLDWGQIYKLQPLSDEDKLQALQLRARLRGFELPEDVGRFLLKRLDREMRTLFMTLDQLDRASITAQRKLTIPFVKEILKL	9.48

Prompt: Give the value of total protein half-life in vivo reported for the following: MRHIFQRLLPRRLWLAGLPCLALLGCVQNHNKPAIDTPAEEKIPVYQLADYLSTECSDIWALQGKSTETNPLYWLRAMDCADRLMPAQSRQQARQYDDGSWQNTFKQGILLADAKITPYERRQLVARIEALSTEIPAQVRPLYQLWRDGQALQLQLAEERQRYSKLQQSSDSELDTLRQQHHVLQQQLELTTRKLENLTDIERQLSTRKPAGNFSPDTPHESEKPAPSTHEVTPDEP [P0AD44]
Completion: 13.1

Prompt: Give the value of total protein half-life in vivo reported for the following: MARARGRGRRDLKSEINIVPLLDVLLVLLLIFMATAPIITQSVEVDLPDATESQAVSSNDNPPVIVEVSGIGQYTVVVEKDRLERLPPEQVVAEVSSRFKANPKTVFLIGGAKDVPYDEIIKALNLLHSAGVKSVGLMTQPI [P0ABV6]
Completion: 11.9

Prompt: Give the value of total protein half-life in vivo reported for the following: `MRLEFSIYRYNPDVDDAPRMQDYTLEADEGRDMMLLDALIQLKEKDPSLSFRRSCREGVCGSDGLNMNGKNGLACITPISALNQPGKKIVIRPLPGLPVIRDLVVDMGQFYAQYEKIKPYLLNNGQNPPAREHLQMPEQREKLDGLYECILCACCSTSCPSFWWNPDKFIGPAGLLAAYRFLIDSRDTETDSRLDGLSDAFSVFRCHSIMNCVSVCPKGLNPTRAIGHIKSMLLQRNA`
Completion: 11.9

Prompt: Give the value of total protein half-life in vivo reported for the following: `MKKRKTVKKRYVIALVIVIAGLITLWRILNAPVPTYQTLIVRPGDLQQSVLATGKLDALRKVDVGAQVSGQLKTLSVAIGDKVKKDQLLGVIDPEQAENQIKEVEATLMELRAQRQQAEAELKLARVTYSRQQRLAQTKAVSQQDLDTAATEMAVKQAQIGTIDAQIKRNQASLDTAKTNLDYTRIVAPMAGEVTQITTLQGQTVIAAQQAPNILTLADMSAMLVKAQVSEADVIHLKPGQKAWFTVLGDPLTRYEGQIKDVLPTPEKVNDAIFYYARFEVPNPNGLLRLDMTAQVHIQLTDVKNVLTIPLSALGDPVGDNRYKVKLLRNGETREREVTIGARNDTDVEIVKGLEAGDEVVIGEAKPGAAQ`
Completion: 12.5

Prompt: Give the value of total protein half-life in vivo reported for the following: MQFNIPTLLTLFRVILIPFFVLVFYLPVTWSPFAAALIFCVAAVTDWFDGFLARRWNQSTRFGAFLDPVADKVLVAIAMVLVTEHYHSWWVTLPAATMIAREIIISALREWMAELGKRSSVAVSWIGKVKTTAQMVALAWLLWRPNIWVEYAGIALFFVAAVLTLWSMLQYLSAARADLLDQ [P0ABF8]
Completion: 15.4

Prompt: Give the value of total protein half-life in vivo reported for the following: MSEKPLTKTDYLMRLRRCQTIDTLERVIEKNKYELSDNELAVFYSAADHRLAELTMNKLYDKIPSSVWKFIR [P0ACE3]
Completion: 0.865

Prompt: Give the value of total protein half-life in vivo reported for the following: MKVGFIGLGIMGKPMSKNLLKAGYSLVVADRNPEAIADVIAAGAETASTAKAIAEQCDVIITMLPNSPHVKEVALGENGIIEGAKPGTVLIDMSSIAPLASREISEALKAKGIDMLDAPVSGGEPKAIDGTLSVMVGGDKAIFDKYYDLMKAMAGSVVHTGEIGAGNVTKLANQVIVALNIAAMSEALTLATKAGVNPDLVYQAIRGGLAGSTVLDAKAPMVMDRNFKPGFRIDLHIKDLANALDTSHGVGAQLPLTAAVMEMMQALRADGLGTADHSALACYYEKLAKVEVTR [P0ABQ2]
Completion: 9.56

Prompt: Give the value of total protein half-life in vivo reported for the following: MTAPLTLLIVEDETPLAEMHAEYIRHIPGFSQILLAGNLAQARMMIERFKPGLILLDNYLPDGRGINLLHELVQAHYPGDVVFTTAASDMETVSEAVRCGVFDYLIKPIAYERLGQTLTRFRQRKHMLESIDSASQKQIDEMFNAYARGEPKDELPTGIDPLTLNAVRKLFKEPGVQHTAETVAQALTISRTTARRYLEYCASRHLIIAEIVHGKVGRPQRIYHSG [P0AEF4]
Completion: 8.21
